B1: TRIM15 (parent)
chain: LSQMGAQSSGKILLCPLCQEEEQA

Variants of: B1
EXPERIMENT SUMMARY: protein stability index of a GFP-peptide fusion (GPS, HEK-293T) (PSI 1-6); higher = more stable;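 note: lentivirally expressed fusions sorted by FACS into six bins by GFP to DsRed ratio, PSI derived from sequencing read proportions per bin multiplied by bin number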
PARTICULARS: c terminus: a fixed tail appended
PARAMETER MEASURED: protein stability index

- INPUT SEQUENCE: "LSQMGIQSSGKILLCPLCQEEEQA [A6I]"
  REPORTED: 3.93
- INPUT SEQUENCE: "LSQMGAQSSGKIRLCPLCQEEEQA [L13R]"
  REPORTED: 4.71
- INPUT SEQUENCE: "LSQMFAQSSGKILLCPLCQEEEQA [G5F]"
  REPORTED: 3.22
- INPUT SEQUENCE: "LSQMTAQSSGKILLCPLCQEEEQA [G5T]"
  REPORTED: 3.7
- INPUT SEQUENCE: "LSQMGAQSSGCILLCPLCQEEEQA [K11C]"
  REPORTED: 2.79
- INPUT SEQUENCE: "LSQMKAQSSGKILLCPLCQEEEQA [G5K]"
  REPORTED: 3.87
- INPUT SEQUENCE: "FSQMGAQSSGKILLCPLCQEEEQA [L1F]"
  REPORTED: 2.73
- INPUT SEQUENCE: "LSQMGAQSSGKILLCCLCQEEEQA [P16C]"
  REPORTED: 2.59
- INPUT SEQUENCE: "LRQMGAQSSGKILLCPLCQEEEQA [S2R]"
  REPORTED: 3.7
- INPUT SEQUENCE: "LSQMGAQSSGKILLCPLCQEEMQA [E22M]"
  REPORTED: 2.56
- INPUT SEQUENCE: "LSQMGAQSSGKILLCPLCQEEHQA [E22H]"
  REPORTED: 3.67
